- Tested on: unphosphorylated VEGF-R2Δ50 (FLVK) (Homo sapiens, UniProt P35968, DEL940-989/E990V)
- Construct: VEGF-R2Δ50 contains residues 806–939 and 990–1171; made in house; host or cells: baculovirus/insect cell system
- Sequence (P35968 with tags, fused parts or gaps DEL940-989/E990V limits assumed): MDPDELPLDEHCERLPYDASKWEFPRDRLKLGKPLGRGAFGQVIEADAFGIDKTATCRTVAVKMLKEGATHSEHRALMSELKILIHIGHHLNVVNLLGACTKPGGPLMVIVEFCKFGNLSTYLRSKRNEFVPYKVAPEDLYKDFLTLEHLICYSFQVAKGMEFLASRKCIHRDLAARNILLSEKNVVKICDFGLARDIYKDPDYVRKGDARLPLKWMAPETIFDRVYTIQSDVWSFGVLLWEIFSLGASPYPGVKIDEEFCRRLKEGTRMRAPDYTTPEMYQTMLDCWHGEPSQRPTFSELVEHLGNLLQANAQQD
- Experiment description: VEGF-R2 coupled spectrophotometric assay, unphosphorylated VEGF-R2Δ50 (FLVK)
- Assay type: biochemical
- Test conditions: unphosphorylated VEGF-R2Δ50
Recorded metric: pKi
Bear in mind: pKi is minus log10 of a mol/L concentration; give just that figure.

Answered examples (3):
CNC(=O)c1c(C)n(C)c2cc(Oc3ccnc4cc(C(=O)N5CCC[C@H]5CO)sc34)ccc12 [Example 16]
8.09
CNC(=O)c1c(C)oc2cc(Oc3ccnc4cc(C(=O)N5CCC5)sc34)ccc12 [Example 77]
9.70
CO[C@@H]1CCN(C(=O)c2cc3nccc(Oc4ccc5c(C(=O)NCCN6CCOCC6)c(C)oc5c4)c3s2)C1 [Example 90]
9.13

# lookup: pKi of CCC(=O)c1cc2nccc(Oc3ccc4c(C(=O)NC)c(C)n(C)c4c3)c2s1 [Example 51]
7.56

# lookup: pKi of CNC(=O)c1c(C)oc2cc(Oc3ccnc4cc(-c5nccn5C)sc34)ccc12 [Example 13]
9.49
